This collection of values is drawn from patent US20180346592A1.

targetUnderTest: GPC3 on the surface of hepatic cancer cell lines (SK-Hep1-GPC3 transfectant, HepG2, Huh7, Hep3B, SNU398) (human) (UniProt P51654)
procedureSummary: FACS, SK-Hep1-GPC3 #9 cells, 1 ug antibody; lower left panel
quantity: Mean, FL2-H

- binder: "clone GN328 (scFv, V domains shown) VH: EVQLVESGGGLVQPGGSLRVSCAASGFTFSTAWMDWVRQAPGKGLEWVANINPDGSEKHYVDSVKGRFTVSRDNAKNSVYLHMNNLRAEDTAVYYCSKALDYWGQGTTVTVSS VL: DIQMTQSPSTLSASVGDRVTITCRASQNINTWLAWYQQKPGKAPEVLIYEASSLESGVPPRFSGSGSGTEFTLTISSLQPDDSATYYCQQYNTYSPTFGQGTKLEIKR"
  result: 4.17
